Molecular target: monomeric HLA-A2:HPV16E7(11-19) peptide complex, soluble (human; human papillomavirus type 16)
Test: SPR 25C, mAb captured
ASSAY METRIC: log10(t½) (log10 of the value in min)

| BINDER | log10(t½) |
| --- | --- |
| H4sH17364N (antibody, V domains shown) VH: EVQLLESGGGLVQPGGSLRLSCAASGFTFSSYAMTWVRQAPGKGLEWVSVISGSGSETYYADSVKGRFTISRDNSKNTLYLQMNSLRAEDTAVYYCVKDSSYRSSSRAYYYYGMDVWGLGTTVTVSS VL: DIQMTQSPSSLSASVGDRVTITCRASQSISSYLNWYQQKPGKAPKLLIYAVSILQSGVPSRFSGSGSGTDFTLTISSLQPEDFATYSCQQTYSTPPITFGQGTRLEIKR | 0.87 |
| H4sH17672P (antibody, V domains shown) VH: EVQLVESGGGLVQPGASLRLSCEASGFTLSFYSMHWVRQAPGRELEYVSGISGNGNNIYYRDSVKGRFTISRDNSKNTLNLQMGSVRAEDMGVYYCARSYSSGNSYNYYYGMDVWGQGTTVTVSS VL: DIQMTQSPSSLSASVGDRVTITCRASQTISSYLNWYQQKPGKAPKLLIYAVSNLQSGVPSRFSGSGSGTDFTLTISSLQPEDFATYYCQQSYSTPPITFGQGTRLEIK | 1.15 |
| H4sH17363N (antibody, V domains shown) VH: EVQLLESGGGLVQPGGSLRLSCAASGFTFSSYAMTWVRQAPGMGLEWVSVISGSGSETYYADSVKGRFTISRDNSKNTLYLQMNSLRAEDTAVYYCVKDSSYRSSSRAYYYYGMDVWGLGTTVTVSS VL: DIQMTQSPSSLSASVGDRVTITCRASQSISSYLNWYQQKPGKAPKLLIYAVSILQSGVPSRFSGSGSGTDFTLTINSLQPEDFATYSCQQTYSTPPITFGQGTRLEIKR | 0.88 |
| H4sH17675P (antibody, V domains shown) VH: EVQLVESGGGLVQPGASLRLSCEASGFTLSFYAMHWVRQAPGKELEYVSGISGNGNSIYYRDSVKGRFTISRDNSKNTLYLQMGSVGAEDMAVYYCARSYSSGNSYYYYYGMDVWGQGTTVTVSS VL: DIQMTQSPSSLSASVGDRITITCRASQSISSYLNWYQQKPGKAPNLLIYAASNLQSGVPSRFSGSGSGTDFTLTISSLQPEDFATYYCQQSYSTPPITFGQGTRLEIKR | 0.92 |
| H4sH21079P (antibody, V domains shown) VH: EVQLVESGGGLVKPGGSLRLSCAASGFTFSNAWMSWVRQAPGKGLEWVGRIKTRADGGTTDYAAPVKGRFTISRDDSKNTLYLQLNSLKTEDTAVYYCTSHNWNYEDFDYWGQGTLVTVSS VL: DIQMTQSPSSLSASVGDRVTITCRASQSISNYLNWYQQKPGKAPKLLIYAASSLQSGVPSRFSGSGSGTDFTLTISSLQPEEFATYYCQQSYSIPYTFGQGTKLEIK | 0.04 |

Values from patent US20220001000A1
